B1: LINE1-full (parent)
chain: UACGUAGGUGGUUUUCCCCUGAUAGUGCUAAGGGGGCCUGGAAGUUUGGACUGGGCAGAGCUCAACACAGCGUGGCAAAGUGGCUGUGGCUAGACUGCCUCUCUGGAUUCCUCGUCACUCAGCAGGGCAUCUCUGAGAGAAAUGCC

- Variants of: B1
- assay.info: self-cleavage, relative activity (ratio to wild type); higher = more cleavage; in vitro, sequencing; the parent is a self-cleaving ribozyme
result.type: self-cleavage
Answers are plain numbers.

G32A U112C: 1.36
G55U G144A: 0.43
U12C C133A: 1.67

Report self-cleavage for each item below.
1. U15C U46C
2. A22U U115A

Result ::
1. 1.31
2. 0.63

Report self-cleavage for each item below.
1. A43U A77U
2. A30G A136G
3. G11U U130C

Result ::
1: 1.02; 2: 1.23; 3: 1
